Kindly state OD450 (ref. 630 nm) for each of the entries shown.
testedSystem: T1, cTnI quality control product recombinant protein (human, UniProt P19429 2-210, limits assumed)
T1 construct: treated as the same molecule; also called cTnI antigen; cardiac troponin I
T1 sequence (P19429 2-210 limits assumed): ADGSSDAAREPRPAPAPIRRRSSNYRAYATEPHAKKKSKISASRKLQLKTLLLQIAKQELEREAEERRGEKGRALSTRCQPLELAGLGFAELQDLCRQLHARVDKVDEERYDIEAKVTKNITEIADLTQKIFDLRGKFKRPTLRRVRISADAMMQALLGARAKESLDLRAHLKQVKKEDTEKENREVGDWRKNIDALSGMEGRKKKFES
measurementDescription: sandwich ELISA, antibody 4.115 ng/ml on anti-mouse IgG, cTnI 0.15 ug/ml, HRP second mAb
A complete answer gives the number and then names the unit.

Worked cases, OD450 (ref. 630 nm) given:
Mutation 3 (antibody, V domains shown, Built as m3, with this row's residues) VH: EVQLQQSGPELVKPGASVKMSCKASGYTFTLYVVHWVKQKPGQGLEWIGYIQPYLDGTHYNEKFKGKATLTVDKSSSTAFMELSSLTSEDSAVYYCARSGYGGYGLAWLAYWGQGTLVTVSA VL: QAVVIQESALTTSPGETVTLTCRSSSGAATTSQYANWVQEKPDHLFTGLIGGSNNRIPGVPARFSGSLIGDKAALTITGAQTEDEAIYFCAAVYSNHWVFGGGTKLTVLG :: 0.347 OD
Mutation 1 (antibody, V domains shown, CDR mutant of WT) VH: EVQLQQSGPELVKPGASVKMSCKASGYTFTLYVVHWVKQKPGQGLEWIGYIQPYLDGTKYNEKFKGKATLTVDKSSSTAFMELSSLTSEDSAVYYCARSGYGGYGLAWLAYWGQGTLVTVSA VL: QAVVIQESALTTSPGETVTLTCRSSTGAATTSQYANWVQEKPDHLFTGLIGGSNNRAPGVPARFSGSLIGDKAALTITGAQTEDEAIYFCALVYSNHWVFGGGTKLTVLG :: 1.89 OD

The binder identified as Anti-cTnI-21C5 monoclonal antibody (recombinant) (antibody, mouse IgG2b, V domains shown, also called WT; Sample 1) VH: EVQLQQSGPELVKPGASVKMSCKASGYSFTLYVVHWVKQKPGQGLEWIGYIQPYLDGTRYNEKFKGKATLTVDKSSSTAFMELSSLTSEDSAVYYCARTGYGGYGLAWLAYWGQGTLVTVSA VL: QAVVIQESALTTSPGETVTLTCRSSSGAATTSQYANWVQEKPDHLFTGLIGGSNNRAPGVPARFSGSLIGDKAALTITGAQTEDEAIYFCAIVYSNHWVFGGGTKLTVLG registered its OD450 (ref. 630 nm) at 1.19 OD
